ASSAY OVERVIEW: growth inhibitors of H69AR lung tumor, primary screen, human, duplicate replicates (AID 580);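 further: 100% = mean luminescence of untreated wells and 0% = no signal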
EXPERIMENTAL SETUP: H69AR lung tumor cells viability, ATP luminescence, 72 h; at 10 µM; hits give low values
Active and inactive are the calls of the source.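 How the source made its calls: active means viability at or under a set limit in both replicates, limit being median viability minus 3 SD (cut at about 48% in these data, passing the limit was not always enough); inconclusive means at or under the limit in just one replicate; inactive means at or above the limit in both replicates.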
MEASURE NAME: viability

Here is how some compounds turned out for viability.
Incoming: State the recorded viability for this entry: COCCOC(=O)c1c(C)oc2ccc(NS(=O)(=O)c3ccc(F)cc3)cc12
Outgoing: 90.5% (inactive)

Incoming: Query COC(=O)C1(C)NC(c2ccco2)C2C(=O)N(c3ccc(C)cc3)C(=O)C21 (stereo not given) next
Outgoing: 91.5% (inactive)

Others:
Incoming: State the recorded viability for this entry: COc1ccccc1-n1cnc(N)c1C(C)=O
Outgoing: 103% (inactive)

Incoming: Query CC(=O)N(c1ccc(N(C(C)=O)S(=O)(=O)c2cccs2)cc1)S(=O)(=O)c1cccs1 next
Outgoing: 86% (inactive)

Incoming: Query COc1cc(C(=O)N2CCC(NC(=O)C(Cc3ccc(C)cc3)NC(C)=O)CC2)cc(OC)c1OC (stereo not given) next
Outgoing: 98% (inactive)

Incoming: Query Cc1ccc(S(=O)(=O)NC(=O)c2cc(C)n(CCCn3ccnc3)c2C)cc1 next
Outgoing: 90.7% (inactive)

Incoming: Query CCC(=O)Nc1cc(C(=O)NCC2CCCN2CC)c(OC)cc1N(C)C (stereo not given) next
Outgoing: 114% (inactive)

Incoming: Query Cc1noc(COc2ccccc2OCC(O)CNC(C)(C)C)n1 (stereo not given) next
Outgoing: 97% (inactive)

Incoming: Query CC1=C(C(=O)NC2CCCC(C)C2C)C2(CCCCC2)OC1=O (stereo not given) next
Outgoing: 95.8% (inactive)

Incoming: Query Cc1ccc(S(=O)(=O)N2CCOCC(=O)NCCOCCNC(=O)COCC2)cc1 next
Outgoing: 106% (inactive)

---

TARGET OR TEST SYSTEM: Receptor tyrosine-protein kinase erbB-2 (Homo sapiens)
ASSAY OVERVIEW: reducers of endogenous Her2 protein level, primary screen, SKBR3 breast tumor cells, AlphaScreen, ATP viability (AID 461);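 further: lower value means less Her2 protein in the cells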
EXPERIMENTAL SETUP: 18-24 h, at 10 µM, hits give low values
MEASURE NAME: Her2 level (%)
Give the number; % is assumed, so skip it.

Incoming: State the recorded Her2 level for this entry: Cc1ccc(-c2noc(CCC(=O)NCC3CCN(Cc4cccc(C)c4)CC3)n2)cc1
Outgoing: 82.5

Incoming: Query COc1ccc(-n2c(SCC(=O)c3c(N)n(C)c(=O)n(C)c3=O)nc3ccccc32)cc1 next
Outgoing: 71.5

Incoming: Query CC(C)Cc1cc(C(=O)Nc2c(F)cc(F)cc2Br)no1 next
Outgoing: 106

Incoming: Query O=C(Nc1ccccc1C(=O)NCC1CCCO1)c1ccco1 (centres undefined) next
Outgoing: 89

Incoming: Query O=c1[nH]c(/C(=N\O)c2ccccc2)no1 next
Outgoing: 82

Incoming: Query O=S(=O)(c1ccc(S(=O)(=O)N2CCN3CCCC3C2)cc1)N1CCCC1 (centres undefined) next
Outgoing: 90.5

Incoming: Query C#CCSc1nnc(-c2ccccc2)c(=O)[nH]1 next
Outgoing: 91

Incoming: Query CCOC(=O)CSc1nnc(-c2ccccc2OC)o1 next
Outgoing: 96

Incoming: Query CCOC(=O)C(NC(=O)c1ccc(OC)cc1)(N1CCOCC1)C(F)(F)F (centres undefined) next
Outgoing: 95.5
